Quick reference: viability, T/C of the listed items.
System: 817829-284-R-J1-PDC complex spheroids, viability;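 also: spheroids exposed to the agents for seven days before readout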
Test: Anticancer human tumor 817829-284-R-J1-PDC patient-derived colon adenocarcinoma cell line growth inhibition [CLK]
Conditions: second compound 0.1 µM; first compound 0.0316 µM; hits give low values
Only the number, expressed in %, is required.

COc1c(OCCCN2CCOCC2)ccc2c3n(c(=NC(=O)c4cnc(N)nc4)nc12)CCN3 + CN1CCN(c2cc(C(=O)Nc3cc4cc(-c5cnn(C)c5)ccc4cn3)ccn2)CC1    11.5
CC(=O)O[C@H]1C(=O)[C@@]2(C)[C@H]([C@H](OC(=O)c3ccccc3)[C@]3(O)C[C@H](OC(=O)[C@H](O)[C@@H](NC(=O)c4ccccc4)c4ccccc4)C(C)=C1C3(C)C)[C@]1(OC(C)=O)CO[C@@H]1C[C@@H]2O + CN1CCN(c2cc(C(=O)Nc3cc4cc(-c5cnn(C)c5)ccc4cn3)ccn2)CC1    5.23
COc1ccc([C@@H](O)c2cc(-c3ncnc4cc(N5CCOCC5)ccc34)c(F)cc2Cl)nn1 + CN1CCN(c2cc(C(=O)Nc3cc4cc(-c5cnn(C)c5)ccc4cn3)ccn2)CC1    15.4

Given O=c1[nH]cc(F)c(=O)[nH]1 + CN1CCN(c2cc(C(=O)Nc3cc4cc(-c5cnn(C)c5)ccc4cn3)ccn2)CC1 , state its recorded viability, T/C.
18.2
